- assay.name: In vitro stability in rat brain homogenate
- Type: in vitro ADME
- experimental.parameters: male, Sprague-Dawley, tissue homogenate; rat brain homogenate, 2000 ng/mL, 37 °C, incubation 3 hr, LC/MS/MS; mean ± S.E.M. of 5; LLOQ 12.5 ng/mL P3V8; read-out: Percentage of remained
Residues, ends and D or L forms follow the SMILES beside them. *: point of attachment. Palmitoyl = CCCCCCCCCCCCCCCC(=O)*
property.label: remaining at 3 h, 2000 ng/mL (%)
Output spec: scalar in %, unitless text.

Problem: So what's the measured remaining at 3 h, 2000 ng/mL for this one? CCCCCCCCCCCCCCCC(=O)N[C@@H](CC(=O)O)C(=O)NCC(=O)N[C@@H](CCCCN)C(=O)N[C@@H](CO)C(=O)N[C@@H](CCCCN)C(=O)NCC(=O)N[C@H](C(=O)N[C@@H](C)C(=O)N[C@@H](Cc1ccc(O)cc1)C(=O)N[C@H](C(=O)N[C@@H](CCC(=O)O)C(=O)N[C@@H](Cc1ccccc1)C(=O)N[C@@H](CCCCN)C(N)=O)[C@@H](C)CC)[C@@H](C)CC [L1P3V8] (Palmitoyl-DGKSKGIAYIEFK-NH2)
Result: 21.2

Just for reference, paper PMC5608758 is where these values come from.
